System: HCT-15 colon
Experiment: NCI tumour cell line growth inhibition, 48 h
Task for the reader: assign each of the following molecules its reported TGI.

Qu. Give the reported value of TGI for this record: COC(=O)Nc1cc(OCCCOC(C)=O)c2[nH]c(C(=O)OC)cc2c1C[C@H](O)CO
Ans. > 100 µM

Qu. Give the reported value of TGI for this record: COc1cccc2c(=O)oc(-c3ccccc3C)nc12
Ans. > 100 µM

Qu. Give the reported value of TGI for this record: O=[N+]([O-])c1cccnc1S(=O)(=O)c1ccccc1
Ans. 21.7 µM

Qu. Give the reported value of TGI for this record: Cc1ccc(S(=O)(=O)Nc2ccccc2C(C)(C)C)cc1
Ans. 54.6 µM

Qu. Give the reported value of TGI for this record: COC(=O)[C@H](C)NC(=O)[C@H](NS(=O)(=O)c1nc2ccccc2s1)c1ccccc1
Ans. > 100 µM

Qu. Give the reported value of TGI for this record: COc1cc2c(cc1O)C(Cc1ccc(OCc3ccccc3)c(OCc3ccccc3)c1)N(C(=O)NCCc1ccccc1)CC2 (stereo not given)
Ans. > 100 µM

Qu. Give the reported value of TGI for this record: COc1cc(C2c3cc4c(cc3[C@@H](Nc3ccc(F)cc3)C3COC[C@H]23)OCO4)cc(OC)c1O (stereo not given in full)
Ans. 18.9 µM

Qu. Give the reported value of TGI for this record: CCOC(=O)c1cn(C)c2c(OC)c3ccccc3c(OC)c2c1=O
Ans. > 100 µM

Qu. Give the reported value of TGI for this record: O=C1C=CC2(CCC23C=CC(=O)O3)O1 (stereo not given)
Ans. > 100 µM

Qu. Give the reported value of TGI for this record: O=C([O-])c1ccc([I+]c2ccccc2)cc1
Ans. > 100 µM

###

System: HL-60(TB) leukemia
Experiment: NCI tumour cell line growth inhibition, 48 h
ASSAY METRIC: TGI (µM)
Your answer is read as µM, so omit the unit and give the number.

Qu. Provide the reported TGI (system: HL-60(TB) leukemia) for C/C(=N/NC(=S)Nc1ccc(C)cc1)c1ccccn1
Ans. 0.608

Qu. Provide the reported TGI (system: HL-60(TB) leukemia) for Cc1ccc(S(=O)(=O)Nc2ccccc2C(C)(C)C)cc1
Ans. 44.7

Qu. Provide the reported TGI (system: HL-60(TB) leukemia) for OCCNc1nc2ccccc2c2[nH]c3ccccc3c12
Ans. 1.95

Qu. Provide the reported TGI (system: HL-60(TB) leukemia) for O=C1/C(=C\c2cccc(Oc3ccccc3)c2)SC(c2ccccc2)N1c1cc(Cl)ccc1Cl (stereo unspecified)
Ans. 48.1

###

Test system: HCT-15 colon
Test: NCI tumour cell line growth inhibition, 48 h
Task for the reader: assign each of the following compounds its reported TGI.

Qu. Provide the reported TGI (system: HCT-15 colon) for CN(Cc1cnc2nc(N)nc(N)c2n1)c1ccc(C(=O)NC(CCC(=O)O)C(=O)O)c2ccccc12 (stereo unspecified)
Ans. > 1000 µM

Qu. Provide the reported TGI (system: HCT-15 colon) for C[n+]1cn(CC(=O)c2ccccc2)c(C(N)=O)c1N
Ans. > 100 µM

Qu. Provide the reported TGI (system: HCT-15 colon) for CCCC(O)[C@@]1(CC)CC(C)C(O)(C2(C)C[C@H](C)[C@@H](C(CC)C(=O)C(C)[C@@H](O)[C@H](C)C3OC(O)(C(CC)C(=O)O)[C@@H](C)C(O)C3CC)O2)O1 (stereo partly specified)
Ans. 7.03 µM

Qu. Provide the reported TGI (system: HCT-15 colon) for Cc1ccc(C(=O)Nc2ccc(Oc3cc4cnn(C)c4cc3-c3cn[nH]c3)c(F)c2)c(=O)n1-c1ccc(F)cc1
Ans. > 100 µM

Qu. Provide the reported TGI (system: HCT-15 colon) for C[C@]12CCc3nc(Nc4ccc(O)cc4)sc3C1=CC[C@@H]1[C@@H]2CC[C@]2(C)/C(=N/NC(N)=S)CC[C@@H]12
Ans. 3.03 µM

Qu. Provide the reported TGI (system: HCT-15 colon) for O=C1c2ccccc2-c2c1c1ccccc1c(=O)n2CCCNCCNCCCn1c2c(c3ccccc3c1=O)C(=O)c1ccccc1-2
Ans. 0.56 µM

Qu. Provide the reported TGI (system: HCT-15 colon) for O=C(N/N=C/c1ccccc1)c1c(F)c(F)c(F)c(F)c1F
Ans. > 100 µM

Qu. Provide the reported TGI (system: HCT-15 colon) for CS(=O)(=O)OCCN1CCN(C(=O)c2ccc(Cl)c3c(Nc4ccc(S(=O)(=O)N=C(N)N)cc4)c4ccccc4nc23)CC1
Ans. > 100 µM

Qu. Provide the reported TGI (system: HCT-15 colon) for Cc1ccc(S(=O)(=O)NC(=O)Nc2ccc(C(=O)O)cc2)cc1
Ans. > 100 µM

Qu. Provide the reported TGI (system: HCT-15 colon) for COC(=O)C(Cc1ccccc1)NC(=O)C(CNC(=O)OCc1ccccc1)C(=O)OCc1ccccc1 (stereo unspecified)
Ans. > 100 µM

Qu. Provide the reported TGI (system: HCT-15 colon) for O=c1[nH]ncc2[nH]c3c(c12)CCc1ccccc1-3
Ans. > 100 µM

Qu. Provide the reported TGI (system: HCT-15 colon) for COc1c(OC2OC(CO)C(O)C(O)C2O)cc2c(c1OC)-c1ccc(OC)c(=O)cc1C(NC(C)=O)CC2 (stereo unspecified)
Ans. > 100 µM

Qu. Provide the reported TGI (system: HCT-15 colon) for CCOC1c2nc3ccccc3nc2-c2ccccc2N1C(C)=O (stereo unspecified)
Ans. > 100 µM

Qu. Provide the reported TGI (system: HCT-15 colon) for CO[C@H]1C(=O)[C@]2(C)[C@@H](OC)C[C@H]3OC[C@@]3(OC(C)=O)[C@H]2[C@H](OC(=O)c2ccccc2)[C@]2(O)C[C@H](OC(=O)[C@H](O)[C@@H](NC(=O)OC(C)(C)C)c3ccccc3)C(C)=C1C2(C)C
Ans. 56 µM

Qu. Provide the reported TGI (system: HCT-15 colon) for CCCCCCCCCCCC1=C(O)C(=O)C(CC2=C(O)C(=O)C(CCCCCCCCCCC)=C(O)C2=O)=C(O)C1=O
Ans. > 100 µM

Qu. Provide the reported TGI (system: HCT-15 colon) for COC(=O)CCC(C)[C@H]1CCC2C3CC[C@@H]4CC5(CC[C@]4(C)C3C[C@H](OC(C)=O)[C@@]21C)OOC1(CCCCC1)OO5 (stereo partly specified)
Ans. > 100 µM

Qu. Provide the reported TGI (system: HCT-15 colon) for O=C(Nc1nc(=S)[nH][nH]1)C(=O)C(c1cnc2ccc([N+](=O)[O-])cc2n1)[N+](=O)[O-] (stereo unspecified)
Ans. > 100 µM

Qu. Provide the reported TGI (system: HCT-15 colon) for CCCCCCCCCCCCCCCCNc1nc(=O)n(C2OC(C)C(O)C2O)cc1F (stereo unspecified)
Ans. 29.1 µM

Qu. Provide the reported TGI (system: HCT-15 colon) for CC(C)(C)C(=O)c1c(O)c2ccccc2c2ccccc2c1=O
Ans. > 100 µM

Qu. Provide the reported TGI (system: HCT-15 colon) for C=CCOC(C)(C)C1=CCC(C)CC1 (stereo unspecified)
Ans. > 100 µM

Qu. Provide the reported TGI (system: HCT-15 colon) for O=C(O)c1ccccc1C(=O)c1ccco1
Ans. > 100 µM

Qu. Provide the reported TGI (system: HCT-15 colon) for CC(C)OC(=O)C(NC(=O)C(CC(=O)OCc1ccccc1)NC(=O)OCc1ccccc1)NC(=O)C1C(C)(C)CCC1(C)C (stereo unspecified)
Ans. 30.7 µM

Qu. Provide the reported TGI (system: HCT-15 colon) for C/C(CCN(C)C)=N/O
Ans. 25.1 µM

Qu. Provide the reported TGI (system: HCT-15 colon) for Cc1nc(C(=Nc2ccc(Br)cc2)Nn2cnnc2)no1
Ans. > 100 µM

Qu. Provide the reported TGI (system: HCT-15 colon) for Cc1ccc(S(=O)(=O)OCCN(CCOS(=O)(=O)c2ccc(C)cc2)c2ccc(C=O)cc2)cc1
Ans. > 100 µM

Qu. Provide the reported TGI (system: HCT-15 colon) for O=C(O)CCCc1ccc2c(c1)C(C(=O)O)CC2 (stereo unspecified)
Ans. > 100 µM

Qu. Provide the reported TGI (system: HCT-15 colon) for CCc1ccc(Oc2c(-c3ccc(OCc4ccc(Cl)cc4)cc3O)nn(C)c2C(F)(F)F)cc1
Ans. 1.45 µM

Qu. Provide the reported TGI (system: HCT-15 colon) for CN(C)CCCOc1ccc(NC2=C(Cl)C(=O)C(Nc3ccc(OCCCN(C)C)cc3)=C(Cl)C2=O)cc1
Ans. 0.958 µM

Qu. Provide the reported TGI (system: HCT-15 colon) for Nc1c(C(=O)O)c2ccc([N+](=O)[O-])cc2c(=O)n1-c1nc2ccccc2s1
Ans. > 100 µM

Qu. Provide the reported TGI (system: HCT-15 colon) for O=[N+]([O-])/C=C/c1cc(Cl)c(/C=C/[N+](=O)[O-])cc1Cl
Ans. 4.19 µM

Qu. Provide the reported TGI (system: HCT-15 colon) for O=C(O)c1ccccc1NCn1nc(-c2ccccc2O)oc1=S
Ans. 65.3 µM

Qu. Provide the reported TGI (system: HCT-15 colon) for CCNC(=S)N/N=C(/C)c1cccc(/C(C)=N\NC(=S)NCC)n1
Ans. > 57 µM

Qu. Provide the reported TGI (system: HCT-15 colon) for CCOC(=O)C1C(c2ccc(Br)cc2)N(Cc2ccccc2)C(c2ccc(Br)cc2)C(C(=O)OC)S1(=O)=O (stereo unspecified)
Ans. > 100 µM

Qu. Provide the reported TGI (system: HCT-15 colon) for Cc1cc(-c2ccc(N=Nc3ccc4c(S(=O)(=O)O)cc(S(=O)(=O)O)c(N)c4c3O)c(C)c2)ccc1N=Nc1ccc2c(S(=O)(=O)O)cc(S(=O)(=O)O)c(N)c2c1O
Ans. > 100 µM

Qu. Provide the reported TGI (system: HCT-15 colon) for Cc1n[nH]c(=O)n1-n1cccc1
Ans. > 100 µM

Qu. Provide the reported TGI (system: HCT-15 colon) for CC1CCCP(=O)(c2ccccc2)CCC1 (stereo unspecified)
Ans. > 100 µM
